Could you please report measured TGI for the items listed next?
- System: KM12 colon
- Method Summary: NCI tumour cell line growth inhibition, 48 h

Problem: Param readout = TGI; param system = KM12 colon; param query = ClC1=NN=C(c2c[nH]c3ccccc23)CC1NCc1ccccc1 (centres undefined) ; response: value
Solution: > 100 µM

Problem: TGI of N[C@@H](CCC(=O)NC(Cc1ccccc1)C(=O)NCP(=O)(O)O)C(=O)O (some centres undefined) on KM12 colon?
Solution: > 100 µM

Problem: Report TGI for O=C(O)C(Cc1ccccc1)NCc1c(O)ccc2c(-c3ccccc3)cc(=O)oc12 (centres undefined) tested on KM12 colon.
Solution: > 100 µM

Problem: Lab note: need TGI for `CCOC(=O)c1c(-c2ccc(OC)cc2)ccn1C` on KM12 colon, anyone have it?
Solution: > 10 µM

Reference source: PubChem BioAssay (NCI)
